target: UniProtKB P00591; test: Inhibitory activity on pancreatic lipase; conditions: IC50, pNPP substrate, Tris-HCl pH 8.0, 37 °C, means ± SD of triplicate
readoutType: IC50 (µM)

A = O=c1c(-c2ccc(O)cc2)coc2cc(O)ccc12
B = O=C1c2c(O)cc(O)cc2O[C@H](c2cc(O)c(O)c(O)c2)[C@H]1O [Dihydromyricetin]
C = C[C@@H]1O[C@@H](OC[C@H]2O[C@@H](Oc3c(-c4ccc(O)c(O)c4)oc4cc(O)cc(O)c4c3=O)[C@H](O)[C@@H](O)[C@@H]2O)[C@H](O)[C@H](O)[C@H]1O
In: Lab note: IC50 ranking, ascending, for the listed compounds. Your task in answering is to list the labels in the requested order.
Out: C, A, B
(C: 367 µM, A: 852 µM, B: 7170 µM)

----------
Consider molecules characterized by their Kd with porcine pancreatic lipase (Sus scrofa).
readoutType: Kd (µM)

1 = O=c1c(-c2ccc(O)cc2)coc2c([C@@H]3O[C@H](CO)[C@@H](O)[C@H](O)[C@H]3O)c(O)ccc12
2 = O=c1cc(-c2ccc(O)c(O)c2)oc2cc(O)c([C@@H]3O[C@H](CO)[C@@H](O)[C@H](O)[C@H]3O)c(O)c12
3 = COc1ccc(-c2coc3cc(O[C@@H]4O[C@H](CO)[C@@H](O)[C@H](O)[C@H]4O)ccc3c2=O)cc1
In: Could you put the items above in increasing order of their Kd? Your answer should be the labels, listed in the requested order.
Out: 1, 2, 3
(1: 1.43 µM, 2: 4.66 µM, 3: 10.9 µM)

P = O=c1c(-c2ccc(O)cc2)coc2cc(O[C@@H]3O[C@H](CO)[C@@H](O)[C@H](O)[C@H]3O)cc(O)c12
Q = O=c1c(O)c(-c2ccc(O)cc2)oc2cc(O)cc(O)c12
In: Field: entry with larger Kd (options P / Q ). Could you answer with the label of the item you picked?
Out: P
(P: 10.8 µM, Q: 4.06 µM)

A = COc1ccc([C@@H]2CC(=O)c3c(O)cc(O)cc3O2)cc1O
B = O=c1c(-c2ccc(O)cc2)coc2cc(O[C@@H]3O[C@H](CO)[C@@H](O)[C@H](O)[C@H]3O)ccc12
In: I'm curious, which of these has a smaller Kd number: A or B ? Output the label that corresponds to your choice.
Out: A
(A: 41.4 µM, B: 141 µM)

----------
Target: porcine pancreatic lipase (Sus scrofa, UniProt P00591)
Sequence (P00591 1-450): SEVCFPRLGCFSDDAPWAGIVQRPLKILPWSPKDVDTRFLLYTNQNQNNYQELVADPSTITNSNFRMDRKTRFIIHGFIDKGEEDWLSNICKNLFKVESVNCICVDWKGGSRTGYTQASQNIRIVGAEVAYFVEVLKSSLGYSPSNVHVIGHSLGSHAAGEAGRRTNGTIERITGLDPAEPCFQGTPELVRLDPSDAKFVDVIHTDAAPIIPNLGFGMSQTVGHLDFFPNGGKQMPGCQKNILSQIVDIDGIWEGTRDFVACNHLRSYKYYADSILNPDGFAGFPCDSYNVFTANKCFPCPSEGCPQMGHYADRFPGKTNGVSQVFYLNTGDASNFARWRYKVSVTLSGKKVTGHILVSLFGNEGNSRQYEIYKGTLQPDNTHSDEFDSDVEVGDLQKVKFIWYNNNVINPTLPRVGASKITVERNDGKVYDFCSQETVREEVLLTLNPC
pKd: −log10 of the molar value.
readoutType: pKd

Record excerpt, results attached:
| compound | pKd |
| --- | --- |
| O=c1cc(-c2ccc(O)cc2)oc2cc(O)cc(O)c12 [Apigenin] | 5.41 |
| O=C1C[C@@H](c2ccc(O)cc2)Oc2cc(O)cc(O)c21 [Naringenin] | 4.48 |
| O=c1cc(-c2ccccc2)oc2cc(O)cc(O)c12 [Chrysin] | 4.79 |

A = O=c1c(O)c(-c2ccccc2)oc2cc(O)cc(O)c12 [Galangin]
B = C[C@@H]1O[C@@H](O[C@H]2C(=O)c3c(O)cc(O)cc3O[C@@H]2c2ccc(O)c(O)c2)[C@H](O)[C@H](O)[C@H]1O [Astilbin]
C = COc1ccc(-c2coc3cc(O)ccc3c2=O)cc1 [Formononetin]
D = O=c1cc(-c2ccc(O)c(O)c2)oc2cc(O)cc(O)c12 [Luteolin]
E = O=c1c(-c2ccc(O)cc2)coc2cc(O)cc(O)c12 [Genistein]
In: Your job: order these 5 records by pKd, ascending. As an answer, provide the labels arranged in the order called for.
Out: B, C, A, E, D
(B: 3.82, C: 4.08, A: 4.86, E: 5.31, D: 6.81)
